- Target Of Assay: Glucose-dependent insulinotropic receptor (Homo sapiens)
- Test: off-target GPR119 activation – cell-based, PathHunter beta-arrestin, luminescence, set 2, counter-screen for GPR151 activator project, confirmation (AID 1508607)
- Run Conditions: GPR119 PathHunter beta-arrestin cells, 90 min, at 11.2 µM
Out of some 2,300 compounds screened, about 20 (0.9%) were called active.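 Rule for the calls: active = mean percent activation across replicates above the counterscreen hit cutoff of 9.17%; inactive = the rest.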 Only a selection was taken, and actives are over-represented in it overall.
Your reply should match one of these outcome classes. active, inactive

// outcome(item) with item = c1ccc(N2CCOCC2)c(Nc2nc3ccccc3n3cnnc23)c1
inactive

Can you look up the reported call for Cc1cc2oc3c(c(=O)c2cc1C)C(c1ccc(O)cc1)N(CCCN1CCOCC1)C3=O (stereo not given) for me?
inactive

How did this test come out for COc1ccc(C[C@H](N)C(=O)N[C@@H]2[C@@H](CO)OC(n3cnc4c(N(C)C)ncnc43)[C@@H]2O)cc1 (stereo not given in full) ?
inactive

Answer briefly: the call reported for O=C(Cn1c(=O)oc2ccccc21)Nc1cccc(C(F)(F)F)c1 in this assay.
inactive

Identify the outcome logged in this assay for the compound shown: COc1ccc2nc(N3CCCC(C(=O)NCCCOC(C)C)C3)sc2c1 (stereo not given)
inactive

Hello, I am checking results. What call was entered for O=C(O/C(=C/c1nc2ccccc2n1Cc1cccc2ccccc12)c1ccc(Cl)cc1)c1ccc(Cl)cc1 ?
inactive

Entry COc1ccc(-c2noc(CC(=O)NCCN3CCOCC3)n2)cc1 : call = ?
inactive

Which outcome was entered for the compound CC[C@@H](C(=O)C(C)[C@@H](O)[C@H](C)CCc1ccc(C)c(O)c1C(=O)O)C1OC(CC)(C2CC[C@](O)(CC)[C@H](C)O2)C[C@@H]1C (stereo not given in full) in this test?
active

I'd appreciate the recorded outcome for CCOC(=O)CCCN(Cc1ccc(F)cc1)S(=O)(=O)c1ccc(F)c(C)c1 from this test.
inactive

Write down the call the test reported for this compound. Item: CC(=O)c1ccc(N2CCN(C(=O)c3cc4c(C)nc5ccccc5c4o3)CC2)cc1
inactive

These data points were gathered from PubChem BioAssay AID1508607.
